test: recombinant UMI read abundance after kanamycin selection (control-corrected) (log10(CPM+1)); higher = more efficient recombination; extreme values may be limits of the assay; sequences stand for … in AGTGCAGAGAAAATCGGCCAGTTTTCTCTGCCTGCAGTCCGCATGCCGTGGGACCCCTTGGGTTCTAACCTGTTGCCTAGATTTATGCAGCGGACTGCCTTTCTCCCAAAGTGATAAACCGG…AGGTTGGTTTCACT; site = the 11-nt donor;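 note: IS621 bridge recombinase in Escherichia coli cells against a fixed T5 target plasmid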
measurementLabel: recombinant UMI read abundance (log10)
Format: numeric value only, no unit, no commentary.

Task: Looking for the measured recombinant UMI read abundance (log10) of GCCCACCCATGGACCGGTTTTCCCGGTAATCCGTATTTGTT (site GACCACCCTAA) , can you help?
Output: 0.0217

Task: recombinant UMI read abundance (log10) for TAACGTCCATGGACCGGTTTTCCCGGTAATCCGTATTTGTA (site TAAAGTCCTTA) ?
Output: 0.571

Task: Quick one: recombinant UMI read abundance (log10) of GCTTGTCCATGGACCGGTTTTCCCGGTAATCCGTATTTGAT (site GCTTGTCCTAT) ?
Output: 0

Task: Need recombinant UMI read abundance (log10), item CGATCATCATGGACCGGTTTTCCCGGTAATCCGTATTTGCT (site CGTTCGTCTAG)
Output: 0.0117

Task: Given the sequence AGGATTACATGGACCGGTTTTCCCGGTAATCCGTATTTGAC (site AGGATTACTGT) , what is its reported recombinant UMI read abundance (log10)?
Output: 1.4

Task: Entry CTACTACCATGGACCGGTTTTCCCGGTAATCCGTATTTGCT (site CTCCTACCTAG) has what recombinant UMI read abundance (log10)?
Output: 0.00711

Task: Please look up its recombinant UMI read abundance (log10): GATCATCCATGGACCGGTTTTCCCGGTAATCCGTATTTGCT (site GATCATCCTAG)
Output: 0.452

Task: // returns reported recombinant UMI read abundance (log10) for input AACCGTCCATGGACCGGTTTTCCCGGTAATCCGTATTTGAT (site AACCTTCCTAT)
Output: 0.0119

Task: Fill in: recombinant UMI read abundance (log10) of AGCCTTGCATGGACCGGTTTTCCCGGTAATCCGTATTTGAC (site AGCCTTACTGT) is ___
Output: 0

Task: Suppose we examine the sequence TTGGAGCCATGGACCGGTTTTCCCGGTAATCCGTATTTGAC (site TTGGAGCCTGT) ; what recombinant UMI read abundance (log10) value has been reported?
Output: 1.31

Task: GET /values?readout=recombinant UMI read abundance (log10)&item= CTTCTTTCATGGACCGGTTTTCCCGGTAATCCGTATTTGTA (site CTTCTGTCTTA)
Output: 0.00353

Task: Look at this sequence and give its reported recombinant UMI read abundance (log10). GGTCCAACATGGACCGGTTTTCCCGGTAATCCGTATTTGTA (site TGTCCAACTTA)
Output: 0.00249

Task: Need recombinant UMI read abundance (log10), item CAGCACGCATGGACCGGTTTTCCCGGTAATCCGTATTTGCA (site CAGCACGCTTG)
Output: 2.58

Task: Quick check: recombinant UMI read abundance (log10) of CGCTAGACATGGACCGGTTTTCCCGGTAATCCGTATTTGAG (site CGATAGACTCT) ?
Output: 0.0154

Task: Fill in: recombinant UMI read abundance (log10) of GTTCGAGCATGGACCGGTTTTCCCGGTAATCCGTATTTGCT (site GTTCGAGCTTG) is ___
Output: 1.03

Task: Entry ACTAGAACATGGACCGGTTTTCCCGGTAATCCGTATTTGAA (site ACTAGAACTAT) : reported recombinant UMI read abundance (log10) = ?
Output: 0

Task: Give its recombinant UMI read abundance (log10) value. Item: CAAGCGCCATGGACCGGTTTTCCCGGTAATCCGTATTTGTG (site CAAGCACCTCA)
Output: 0.0231

Task: Which recombinant UMI read abundance (log10) is reported for this sequence? GCGAGGGCATGGACCGGTTTTCCCGGTAATCCGTATTTGCC (site GCGAGGGCTGG)
Output: 2.23

The measurements presented in this section are drawn from the supplement of paper PMC11208160.
